System under test: Class C β-lactamase of Enterobacter cloacae P-99, a cephalosporinase (Enterobacter cloacae)
Assay comment: biochemical
Run parameters: class C β-lactamase; 10 minute incubation of enzyme (2.56 nM) and inhibitor; nitrocefin substrate; read-out: P99 (IC50, μm)
IC50 values for the molecules below.
Reported endpoint: IC50

[[record]]
molecule = "O=C(O)C1=C(Cl)CS(=O)(=O)C2C(=Cc3ccccn3)C(=O)N12 (stereo not shown)"
result = "3 nM"

[[record]]
molecule = "O=C(O)C1=C(Sc2ccccc2)CS(=O)(=O)C2C(=Cc3ccccn3)C(=O)N12 (stereo not shown)"
result = "21.7 nM"

[[record]]
molecule = "O=C(O)C1=C(F)CS(=O)(=O)C2C(=Cc3ccccn3)C(=O)N12 (stereo not shown) [Compound 14a]"
result = "11 nM"

[[record]]
molecule = "NCCCNC(=O)C=CC1=C(C(=O)O)N2C(=O)C(=Cc3ccccn3)C2S(=O)(=O)C1 (stereo not shown) [Compound 21b]"
result = "4200 nM"

[[record]]
molecule = "O=C(O)C1=C(c2ccccc2)CS(=O)(=O)C2C(=Cc3ccccn3)C(=O)N12 (stereo not shown)"
result = "38 nM"

[[record]]
molecule = "O=C(C=CC1=C(C(=O)O)N2C(=O)C(=Cc3ccccn3)C2S(=O)(=O)C1)NC1CC1 (stereo not shown) [Compound 18a]"
result = "824 nM"

[[record]]
molecule = "NNC(=O)C=CC1=C(C(=O)O)N2C(=O)C(=Cc3ccccn3)C2S(=O)(=O)C1 (stereo not shown) [Compound 21a]"
result = "1100 nM"


###

Listed here are molecules together with their documented IC50.
System under test: TEM-1, a Class A penicillinase (Escherichia coli)
Sequence (P62593 24-286 limits assumed): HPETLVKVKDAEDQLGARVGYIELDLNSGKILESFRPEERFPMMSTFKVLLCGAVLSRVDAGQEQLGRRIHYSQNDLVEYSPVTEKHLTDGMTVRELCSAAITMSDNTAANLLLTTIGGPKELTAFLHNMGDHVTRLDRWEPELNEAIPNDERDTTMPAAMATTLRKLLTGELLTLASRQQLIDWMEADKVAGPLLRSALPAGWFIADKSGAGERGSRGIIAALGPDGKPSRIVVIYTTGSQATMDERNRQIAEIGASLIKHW
Assay comment: beta-lactamase inhibition, relative IC50 analysis by nitrocefin hydrolysis (class A enzyme)
Run parameters: class A β-lactamase; 10 minute incubation of enzyme (2.56 nM) and inhibitor; nitrocefin substrate
Reported endpoint: IC50 (nM)

[[record]]
molecule = "NCCCNC(=O)C=CC1=C(C(=O)O)N2C(=O)C(=Cc3ccccn3)C2S(=O)(=O)C1 (stereo not shown) [Compound 21b]"
reported_endpoint = "IC50"
numeric_readout = 1590

[[record]]
molecule = "O=C(C=CC1=C(C(=O)O)N2C(=O)C(=Cc3ccccn3)C2S(=O)(=O)C1)NC1CC1 (stereo not shown) [Compound 18a]"
reported_endpoint = "IC50"
numeric_readout = 240

[[record]]
molecule = "CSC1=C(C(=O)O)N2C(=O)C(=Cc3ccccn3)C2S(=O)(=O)C1 (stereo not shown)"
reported_endpoint = "IC50"
numeric_readout = 1060

[[record]]
molecule = "O=C(C=CC1=C(C(=O)O)N2C(=O)C(=Cc3ccccn3)C2S(=O)(=O)C1)NO (stereo not shown) [Compound 18b]"
reported_endpoint = "IC50"
numeric_readout = 7690


###

System under test: TEM-1, a Class A penicillinase (Escherichia coli)
Assay comment: beta-lactamase inhibition, relative IC50 analysis by nitrocefin hydrolysis (class A enzyme)
Run parameters: class A β-lactamase; 10 minute incubation of enzyme (2.56 nM) and inhibitor; nitrocefin substrate
pIC50: −log10 of the molar value.
Reported endpoint: pIC50

[[record]]
compound = "O=C(O)C1=C(c2ccccc2)CS(=O)(=O)C2C(=Cc3ccccn3)C(=O)N12 (stereo not drawn) [Compound 9d]"
system_under_test = "TEM-1, a Class A penicillinase (Escherichia coli)"
reported_endpoint = "pIC50"
numeric_readout = 5.04

[[record]]
compound = "CN1CCN(C(=O)C=CC2=C(C(=O)O)N3C(=O)C(=Cc4ccccn4)C3S(=O)(=O)C2)CC1 (stereo not drawn) [Compound 21c]"
system_under_test = "TEM-1, a Class A penicillinase (Escherichia coli)"
reported_endpoint = "pIC50"
numeric_readout = 7.28

[[record]]
compound = "O=C(O)C1=C(S(=O)(=O)c2ccccc2)CS(=O)(=O)C2C(=Cc3ccccn3)C(=O)N12 (stereo not drawn) [Compound 11b]"
system_under_test = "TEM-1, a Class A penicillinase (Escherichia coli)"
reported_endpoint = "pIC50"
numeric_readout = 8.03

[[record]]
compound = "O=C(O)C1=CCS(=O)(=O)C2C(=Cc3ccccn3)C(=O)N12 (stereo not drawn) [Compound 14b]"
system_under_test = "TEM-1, a Class A penicillinase (Escherichia coli)"
reported_endpoint = "pIC50"
numeric_readout = 4.73

[[record]]
compound = "O=C(O)C1=C(Br)CS(=O)(=O)C2C(=Cc3ccccn3)C(=O)N12 (stereo not drawn) [Compound 7b]"
system_under_test = "TEM-1, a Class A penicillinase (Escherichia coli)"
reported_endpoint = "pIC50"
numeric_readout = 6.10

[[record]]
compound = "O=C(O)C1=C(Cl)CS(=O)(=O)C2C(=Cc3ccccn3)C(=O)N12 (stereo not drawn) [Compound 7a]"
system_under_test = "TEM-1, a Class A penicillinase (Escherichia coli)"
reported_endpoint = "pIC50"
numeric_readout = 5.74

[[record]]
compound = "O=C(O)C1=C(c2cccs2)CS(=O)(=O)C2C(=Cc3ccccn3)C(=O)N12 (stereo not drawn) [Compound 9c]"
system_under_test = "TEM-1, a Class A penicillinase (Escherichia coli)"
reported_endpoint = "pIC50"
numeric_readout = 5.45

[[record]]
compound = "NNC(=O)C=CC1=C(C(=O)O)N2C(=O)C(=Cc3ccccn3)C2S(=O)(=O)C1 (stereo not drawn) [Compound 21a]"
system_under_test = "TEM-1, a Class A penicillinase (Escherichia coli)"
reported_endpoint = "pIC50"
numeric_readout = 6.41

[[record]]
compound = "O=C(O)C1=C(Sc2ccccc2)CS(=O)(=O)C2C(=Cc3ccccn3)C(=O)N12 (stereo not drawn) [Compound 9b]"
system_under_test = "TEM-1, a Class A penicillinase (Escherichia coli)"
reported_endpoint = "pIC50"
numeric_readout = 7.92

[[record]]
compound = "CS(=O)(=O)C1=C(C(=O)O)N2C(=O)C(=Cc3ccccn3)C2S(=O)(=O)C1 (stereo not drawn) [Compound 11a]"
system_under_test = "TEM-1, a Class A penicillinase (Escherichia coli)"
reported_endpoint = "pIC50"
numeric_readout = 8.12

[[record]]
compound = "O=C(O)C1=C(I)CS(=O)(=O)C2C(=Cc3ccccn3)C(=O)N12 (stereo not drawn) [Compound 7c]"
system_under_test = "TEM-1, a Class A penicillinase (Escherichia coli)"
reported_endpoint = "pIC50"
numeric_readout = 5.89

[[record]]
compound = "O=C(O)C1=C(F)CS(=O)(=O)C2C(=Cc3ccccn3)C(=O)N12 (stereo not drawn) [Compound 14a]"
system_under_test = "TEM-1, a Class A penicillinase (Escherichia coli)"
reported_endpoint = "pIC50"
numeric_readout = 5.74


###

System under test: Class C β-lactamase of Enterobacter cloacae P-99, a cephalosporinase (Enterobacter cloacae, UniProt P05364)
Sequence (P05364 21-381): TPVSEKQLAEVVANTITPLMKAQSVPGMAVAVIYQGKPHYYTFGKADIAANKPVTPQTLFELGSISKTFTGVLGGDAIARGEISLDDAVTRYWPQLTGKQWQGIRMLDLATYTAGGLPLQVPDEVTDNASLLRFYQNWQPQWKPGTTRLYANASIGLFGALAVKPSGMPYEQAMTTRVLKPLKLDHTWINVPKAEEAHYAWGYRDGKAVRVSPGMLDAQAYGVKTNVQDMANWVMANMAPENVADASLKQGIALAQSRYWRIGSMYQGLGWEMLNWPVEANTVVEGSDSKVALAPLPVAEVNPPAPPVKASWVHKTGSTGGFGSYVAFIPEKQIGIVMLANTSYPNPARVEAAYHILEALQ
Assay comment: biochemical
pIC50: −log10 of the molar value.
Reported endpoint: pIC50

[[record]]
compound = "O=C(O)C1=C(Br)CS(=O)(=O)C2C(=Cc3ccccn3)C(=O)N12 (stereo not drawn) [Compound 7b]"
numeric_readout = 8.54

[[record]]
compound = "CN1CCN(C(=O)C=CC2=C(C(=O)O)N3C(=O)C(=Cc4ccccn4)C3S(=O)(=O)C2)CC1 (stereo not drawn) [Compound 21c]"
numeric_readout = 5.20

[[record]]
compound = "CSC1=C(C(=O)O)N2C(=O)C(=Cc3ccccn3)C2S(=O)(=O)C1 (stereo not drawn) [Compound 9a]"
numeric_readout = 7.23

[[record]]
compound = "CS(=O)(=O)C1=C(C(=O)O)N2C(=O)C(=Cc3ccccn3)C2S(=O)(=O)C1 (stereo not drawn) [Compound 11a]"
numeric_readout = 7.04

[[record]]
compound = "O=C(O)C1=C(c2cccs2)CS(=O)(=O)C2C(=Cc3ccccn3)C(=O)N12 (stereo not drawn) [Compound 9c]"
numeric_readout = 7.37

[[record]]
compound = "O=C(C=CC1=C(C(=O)O)N2C(=O)C(=Cc3ccccn3)C2S(=O)(=O)C1)NO (stereo not drawn) [Compound 18b]"
numeric_readout = 6.89

[[record]]
compound = "O=C(O)C1=C(S(=O)(=O)c2ccccc2)CS(=O)(=O)C2C(=Cc3ccccn3)C(=O)N12 (stereo not drawn) [Compound 11b]"
numeric_readout = 6.76

[[record]]
compound = "O=C(O)C1=C(I)CS(=O)(=O)C2C(=Cc3ccccn3)C(=O)N12 (stereo not drawn) [Compound 7c]"
numeric_readout = 8.33

[[record]]
compound = "O=C(O)C1=CCS(=O)(=O)C2C(=Cc3ccccn3)C(=O)N12 (stereo not drawn) [Compound 14b]"
numeric_readout = 6.94

